tested on: tetA promoter (PtetA)-lacZ reporter in E. coli KM3; assay type: cell-based; settings: Table 4; metsulfuron 20 μg/ml (20 ppm); 48 hrs at 30° C.
MEASURED ENDPOINT: relative β-galactosidase activity, inducer Ms

Ask: For L1-9: library L1 hit, sulfonylurea-responsive TetR(B) variant, parent of L2 and L4 (protein, Sulfonylurea responsive repressor L1-09) MGSRLDKSKVINSALELLNEVGIEGLTTRKLAQKLGVEQPTLYWHVKNKRALLDALAIEMLDRHATHFCPLEGESWQDFLRNNAKSMRCALLSHRDGAKVCLGTGFTEKQYETAENSLAFLCQQGFSLENALYAMQAVCIFTLGCVLLDQELQVAKEERETPTTDSMPPLLRQALELKDHQGAEPAFLFGLELIICGLEKQLKCESGS , what is its reported relative β-galactosidase activity, inducer Ms?
Result: 1.2

Source: patent US8580556B2
